test: gradient 5% acetonitrile 3 min, to 50% in 2 min, to 85% in 15 min, held 3 min, 100 µL/min; conditions: column: Zorbax Extend-C18 2.1 x 50 mm; eluents: water / acetonitrile, 0.1% formic acid
Can you tell me RP-LC retention time for the items I'm about to list?
One number for each entry, in s.

Value sought for every listed compound: RP-LC retention time.
1. Cc1noc(-c2ccnc(-n3cnc(C(=O)NCc4ccccc4)c3)c2)n1
2. COc1ncc(C(=O)Nc2cccc(Cl)c2)c(C)n1
3. O=C(NCc1ccccn1)c1ccc(-c2nc3cccnc3n(C3CCCC3)c2=O)cc1
4. Cc1nc(-c2ccc(NC(=O)N3CCN(c4ccc(F)cc4)CC3)cc2)no1

stdout:
1: 806; 2: 812; 3: 778; 4: 859

Batch of 7 compounds: report RP-LC retention time for each.
1. CCN(CCCc1ccccc1)CCCc1ccccc1
2. CCNC(=O)NC1CCN(c2ccc(C)cc2)C1=O (configuration not stated)
3. O=C(Cc1cccc2ccccc12)Nc1c(-c2ccccc2)nc2ccccn12
4. Cc1ccn2c(NC(=O)COc3ccc(Cl)cc3)c(-c3ccccc3)nc2c1
5. O=C(c1c(OCC2CC2)cc(=O)n2c1CCCCC2)N1CCN(c2ccccn2)CC1
6. COCCNC(=O)CCc1cc2cc(C)ccc2[nH]c1=O
7. CC(=O)N1CCc2cc(N3CC(C(=O)NC(C)C)CC3=O)ccc21 (configuration not stated)

stdout:
874
671
708
714
563
637
613

stdin: What value of RP-LC retention time has been recorded for this entry: Cc1ccc(NC(=O)C2CCCN2S(=O)(=O)c2cc3c(cc2Cl)NC(=O)CO3)cc1 (configuration not stated)
stdout: 800
